# Target Desc: T1, hRev1 330-833 WT (human, UniProt Q9UBZ9 330-833)
# T1 sequence: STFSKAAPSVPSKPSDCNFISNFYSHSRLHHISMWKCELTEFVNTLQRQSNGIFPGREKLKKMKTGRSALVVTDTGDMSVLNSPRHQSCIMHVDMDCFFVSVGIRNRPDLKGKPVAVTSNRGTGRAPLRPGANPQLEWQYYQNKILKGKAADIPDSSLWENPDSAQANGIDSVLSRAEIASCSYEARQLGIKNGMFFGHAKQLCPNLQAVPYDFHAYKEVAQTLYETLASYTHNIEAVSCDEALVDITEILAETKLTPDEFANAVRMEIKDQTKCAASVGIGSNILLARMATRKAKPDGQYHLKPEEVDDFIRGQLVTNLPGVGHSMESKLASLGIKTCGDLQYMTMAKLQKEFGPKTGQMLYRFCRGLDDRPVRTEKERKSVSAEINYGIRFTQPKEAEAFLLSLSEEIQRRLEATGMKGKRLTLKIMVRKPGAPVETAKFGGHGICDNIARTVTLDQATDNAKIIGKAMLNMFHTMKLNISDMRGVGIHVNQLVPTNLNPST
# Assay Overview: fluorescence polarization
Recorded measurements of log10 of Kd, one per entry
Values below are the log10 of the recorded Kd, with µM as the unit.

[
  {
    "Binder": "23/42-mer G4 (mixed) DNA 1: TGAGGGTGGGTAGGGTGGGTGCGTCTGCGGCTGGCTCGAGGC DNA 2: TTTGCCTCGAGCCAGCCGCAGACGCA",
    "log10 of Kd": -1.06
  }
]

Query: # return recorded log10 of Kd for input 23/42-mer non-G4 (mixed) DNA 1: GTGAGATGTTGACCATGGGTGCGTCTGCGGCTGGCTCGAGGC DNA 2: TTTGCCTCGAGCCAGCCGCAGACGCA
Response: -0.68

Query: # return recorded log10 of Kd for input TGAGGGTGGGTAGGGTGGGTGCGTCTGCGGCTGGCTCGAGGC (structured_DNA) [ss-42-mer Myc G4]
Response: -2.40

Query: # return recorded log10 of Kd for input 13/42-mer non-G4 (mixed) DNA 1: GTGAGATGTTGACCATGGGTGCGTCTGCGGCTGGCTCGAGGC DNA 2: TTTGCCTCGAGCCAGC
Response: -0.64

Query: # return recorded log10 of Kd for input 13/42-mer G4 (mixed) DNA 1: TGAGGGTGGGTAGGGTGGGTGCGTCTGCGGCTGGCTCGAGGC DNA 2: TTTGCCTCGAGCCAGC
Response: -1.51

Query: # return recorded log10 of Kd for input GTGAGATGTTGACCATGGGTGCGTCTGCGGCTGGCTCGAGGC (ssDNA) [ss-42-mer non-G4]
Response: -1.07
